test system: Calf thymus DNA; test: Binding affinity to calf thymus DNA in 0.15 M NaCl-0.01 M sodium phosphate buffer at pH 7.3 at 37 degC incubated for 30 mins; format: nucleic-acid assay; details: Bos taurus
Calls of active or inactive are those of the source. No cut-off for these calls is given here.

| Smiles notation | Activity |
| --- | --- |
| Cc1ccc(C(=O)N[C@@H]2C(=O)N[C@H](C(C)C)C(=O)N3CCC[C@H]3C(=O)N(C)CC(=O)N(C)[C@@H](C(C)C)C(=O)O[C@@H]2C)c2c1Oc1c(c(C(=O)N[C@@H]3C(=O)N[C@H](C(C)C)C(=O)N4CCC[C@H]4C(=O)N(C)CC(=O)N(C)[C@@H](C(C)C)C(=O)O[C@@H]3C)c3nc(C)c(=O)oc3c1C)N2 | Active |
| CCc1nc2c(C(=O)N[C@@H]3C(=O)N[C@H](C(C)C)C(=O)N4CCC[C@H]4C(=O)N(C)CC(=O)N(C)[C@@H](C(C)C)C(=O)O[C@@H]3C)c3c(c(C)c2oc1=O)Oc1c(C)ccc(C(=O)N[C@@H]2C(=O)N[C@H](C(C)C)C(=O)N4CCC[C@H]4C(=O)N(C)CC(=O)N(C)[C@@H](C(C)C)C(=O)O[C@@H]2C)c1N3 | Active |
| Cc1ccc(C(=O)N[C@@H]2C(=O)N[C@H](C(C)C)C(=O)N3CCC[C@H]3C(=O)N(C)CC(=O)N(C)[C@@H](C(C)C)C(=O)O[C@@H]2C)c2c1Oc1c(c(C(=O)N[C@@H]3C(=O)N[C@H](C(C)C)C(=O)N4CCC[C@H]4C(=O)N(C)CC(=O)N(C)[C@@H](C(C)C)C(=O)O[C@@H]3C)c3nc(CCC(=O)O)c(=O)oc3c1C)N2 | Active |

This collection of values is drawn from ChEMBL document CHEMBL3228012.
